# credit: ChEMBL document CHEMBL5308504

Target: Aurora kinase A (Homo sapiens) (UniProt O14965)
Sequence (whole entry): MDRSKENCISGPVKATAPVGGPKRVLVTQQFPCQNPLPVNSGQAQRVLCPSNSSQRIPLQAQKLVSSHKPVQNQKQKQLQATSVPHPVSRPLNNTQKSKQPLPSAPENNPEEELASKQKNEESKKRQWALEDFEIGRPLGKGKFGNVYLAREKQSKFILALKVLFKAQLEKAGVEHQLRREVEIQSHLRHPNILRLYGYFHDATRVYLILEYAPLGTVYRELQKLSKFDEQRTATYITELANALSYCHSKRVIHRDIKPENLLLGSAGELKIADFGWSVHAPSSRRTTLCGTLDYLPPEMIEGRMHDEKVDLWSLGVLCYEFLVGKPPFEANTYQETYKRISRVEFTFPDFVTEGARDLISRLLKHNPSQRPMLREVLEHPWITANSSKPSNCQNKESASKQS
Conditions: Compound concentration 20.0 uM, Protein concentration 2.0 uM, Result type QC Liability
Description: Thermal Shift Assay. Domain: start/stop: E122-S403
Note to self: ΔTm under 1 °C means condition met, ties and anything higher get condition not met.

Ask: Lab log: compare recorded ΔTm with 1 °C; is it strictly lower for `COc1cc(CN(CCN)C(=O)N[C@@H](C)c2ccccc2)ccc1OCc1ccccc1` ?
Reply: condition met

Ask: Lab log: compare recorded ΔTm with 1 °C; is it strictly lower for `Cc1cn([C@H](C)CC#N)c(=O)c2cc(Cn3nc(C(F)F)cc3Cl)nn12` ?
Reply: condition met

Ask: Lab log: compare recorded ΔTm with 1 °C; is it strictly lower for `CC1CCN(C(=O)[C@@H](CCn2cccc2C#N)NS(=O)(=O)c2cccc3[nH]ccc23)CC1` ?
Reply: condition met

Ask: Lab log: compare recorded ΔTm with 1 °C; is it strictly lower for `CCCN1C(=O)c2ccc(Cl)cc2Nc2ncccc21` ?
Reply: condition not met

Ask: Lab log: compare recorded ΔTm with 1 °C; is it strictly lower for `C[C@@]1(Cc2ccc(C#N)cc2)C(=O)N(c2cc(Cl)cc(Cl)c2)c2ncc(C(=O)NC3(c4nc(C5CCC5)no4)CC3)n21` ?
Reply: condition not met

Ask: Lab log: compare recorded ΔTm with 1 °C; is it strictly lower for `COc1ccccc1-c1cc(Nc2cccc(CS(N)(=O)=O)c2)ncn1` ?
Reply: condition met

Ask: Lab log: compare recorded ΔTm with 1 °C; is it strictly lower for `CNc1ncc2cc(-c3ccc(-c4cccc(C)n4)cc3Cl)c(=O)n(C[C@H]3OC[C@H](N)CO3)c2n1` ?
Reply: condition not met

Ask: Lab log: compare recorded ΔTm with 1 °C; is it strictly lower for `O=C(O)Cc1ccc(CCNS(=O)(=O)c2ccc(Cl)cc2)cc1` ?
Reply: condition met

Ask: Lab log: compare recorded ΔTm with 1 °C; is it strictly lower for `CCCCc1oc2ccccc2c1C(=O)c1cc(I)c(OCCN(CC)CC)c(I)c1` ?
Reply: condition met

* * *

Exercise: for every item that follows, state its recorded ΔTm.
Target: Aurora kinase A (Homo sapiens) (UniProt O14965)
Sequence (whole entry): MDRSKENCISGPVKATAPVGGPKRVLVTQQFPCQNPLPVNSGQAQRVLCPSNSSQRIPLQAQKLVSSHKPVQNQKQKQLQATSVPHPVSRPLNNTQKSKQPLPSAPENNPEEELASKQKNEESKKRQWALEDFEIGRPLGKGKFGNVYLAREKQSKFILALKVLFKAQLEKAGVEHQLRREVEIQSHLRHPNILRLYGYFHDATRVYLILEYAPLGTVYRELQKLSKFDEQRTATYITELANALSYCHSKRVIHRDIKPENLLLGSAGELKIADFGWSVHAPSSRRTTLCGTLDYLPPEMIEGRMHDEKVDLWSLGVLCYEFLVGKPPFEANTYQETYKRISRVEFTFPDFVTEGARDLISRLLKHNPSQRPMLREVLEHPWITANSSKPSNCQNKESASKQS
Settings: Compound concentration 20.0 uM, Protein concentration 2.0 uM, Result type QC Liability
Enter your answer as a number in °C; do not include the unit.

Form field ΔTm for item `COc1cc(N(C)c2ccnc3ccc(C(F)(F)F)cc23)cc(OC)c1OC` on Aurora kinase A (Homo sapiens) (UniProt O14965): -0.2

Form field ΔTm for item `N=C(N)NCCC[C@H](NC(=O)C(c1ccccc1)c1ccccc1)C(=O)NCc1ccc(CNC(N)=O)cc1` on Aurora kinase A (Homo sapiens) (UniProt O14965): 0.09

Form field ΔTm for item `COC(=O)Nc1nc2c(s1)-c1c(c(-c3cccnc3)nn1-c1ccc(C3(N(C)C)CC3)cc1)CC2` on Aurora kinase A (Homo sapiens) (UniProt O14965): -0.79

Form field ΔTm for item `N=C(N)NCCC[C@H](NC(=O)CC1(CC(=O)N2CCN(C(c3ccccc3)c3ccccc3)CC2)CCCC1)C(=O)NCc1ccccc1` on Aurora kinase A (Homo sapiens) (UniProt O14965): -0.79

Form field ΔTm for item `COc1ccc(C(=O)N[C@H](C)c2cccc(C(=O)Nc3nc4c(s3)CN(C)CC4)c2)cc1C` on Aurora kinase A (Homo sapiens) (UniProt O14965): 0.16
